# Tested on: human NAMPT (Homo sapiens, UniProt P43490)
# Sequence (P43490 whole entry): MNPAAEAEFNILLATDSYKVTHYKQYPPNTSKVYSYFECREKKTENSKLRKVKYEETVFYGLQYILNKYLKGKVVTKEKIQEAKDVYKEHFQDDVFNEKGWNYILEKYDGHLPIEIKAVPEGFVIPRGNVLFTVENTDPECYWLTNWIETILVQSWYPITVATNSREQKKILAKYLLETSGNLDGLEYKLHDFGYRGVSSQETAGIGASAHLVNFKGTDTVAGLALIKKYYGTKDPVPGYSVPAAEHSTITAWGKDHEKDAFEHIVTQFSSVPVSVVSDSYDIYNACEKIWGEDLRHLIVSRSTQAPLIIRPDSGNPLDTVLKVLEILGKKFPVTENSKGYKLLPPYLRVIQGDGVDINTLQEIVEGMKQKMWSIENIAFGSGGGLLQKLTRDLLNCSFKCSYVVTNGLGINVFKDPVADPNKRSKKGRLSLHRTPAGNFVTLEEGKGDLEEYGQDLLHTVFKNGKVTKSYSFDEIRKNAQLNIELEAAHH
# Assay remarks: Human recombinant enzyme assay (NMN fluorescence biochemical assay, activation of NAMPT)
# Test context: Table A; human recombinant NAMPT, NMN formation, 60 min
Reported AC1.4 Human is given for each of the following compounds.
Give just the numeric value; µM need not be written.

Example compounds with recorded AC1.4 Human:
Compound	Obs value
CC(C)(C)OC(=O)N1CCC2(CC1)CC2CNC(=O)NCc1ccncc1 (stereo not shown)	5.0
COc1ccc(CNC(=O)NC2CC3(CC(CN4Cc5ccccc5C4)C3)C2)cc1 (stereo not shown)	7.3
COc1ccc(CNC(=O)NC2CC3(C2)CC(C(=O)N[C@@H]2CCc4ccccc42)C3)cc1 (stereo partly shown)	3.7
O=C(NCc1ccc(Cl)cc1)NC1CC2(C1)CC(OCc1cccnc1)C2 (stereo not shown)	1.7
O=C(NCCCCC1CCN(C(=O)c2cccnc2)CC1)NCc1ccc(Cl)cc1	1.1
COc1ccc(CNC(=O)NC2CC3(C2)CN(C(=O)c2ccnc(C)c2)C3)cc1	7.5
COc1ccc(CNC(=O)NC2CC3(C2)CC(C(=O)N2CCN(Cc4ccncc4)CC2)C3)cc1 (stereo not shown)	1.3
Cc1ccc(C(=O)N2CC[C@]3(C2)C[C@H](NC(=O)NCc2ccc(Cl)cc2)C3)cc1	12.6

Dear colleague, I am looking for the recorded AC1.4 Human of the following compound: O=C(NCc1ccc(Cl)cc1)NC1CC2(C1)CC(C(O)c1ccccc1)C2 (stereo not shown)
1.2

Any idea what AC1.4 Human was measured for CC(C)(C)OC(=O)N1CCC2(CC1)CC2CNC(=O)NCc1cn[nH]c1 (stereo not shown) ?
3.2

Quick one: AC1.4 Human of COc1ccc(CNC(=O)NC2CC3(C2)CN(C(=O)c2cccc(-n4cccc4)c2)C3)cc1 ?
1.4

Requested read-out: AC1.4 Human. Entry: COc1ccc(CNC(=O)NC2CC3(C2)CN(C(=O)c2cccc(N4CCCCC4)c2)C3)cc1
1.8

Field request: AC1.4 Human | item: COc1ccc(CNC(=O)N[C@H]2C[C@@]3(CCN(C(=O)OC(C)(C)C)C3)C2)cc1
10.7

Tell me the measured AC1.4 Human of CN(C(=O)CCCCCNC(=O)NCc1cn[nH]c1)c1ccccc1F , please.
0.1

Which AC1.4 Human value belongs to COC(=O)C1CC2(CC(NC(=O)NCc3ccc(Cl)cc3)C2)C1 (stereo not shown) ?
9.5

// AC1.4 Human lookup, key: NC(=O)c1ccc(CNC(=O)NCCCCC2CCN(C(=O)c3ccccc3)CC2)cc1
0.1

Which AC1.4 Human is listed for Cc1ccccc1C(=O)N1CCC(CCCCNC(=O)NCc2ccc(C(N)=O)cc2)CC1 ?
0.1
